Experiment: Whiteness of powder (color analyzer)
Format: physicochemical
Settings: excipient powder
MEASURE: Whiteness (%)

INSERT INTO results (molecule, endpoint_result) VALUES
  ('OC[C@@H](O)[C@@H](O)[C@H](O)[C@H](O)CO [Mannit P, reference compound]', 96),
  ('OC[C@H]1O[C@@H](O[C@H]2[C@H](O)[C@@H](O)C(O)O[C@@H]2CO)[C@H](O)[C@@H](O)[C@H]1O (stereo partly drawn) [200M lactose, lactose, reference compound]', 95),
  ('OC[C@H]1O[C@H](O[C@H]2O[C@H](CO)[C@@H](O)[C@H](O)[C@H]2O)[C@H](O)[C@@H](O)[C@@H]1O [Trehalose H, trehalose]', 98);

* * *

Assay: Angle of repose (Sugiwara's instrument)
Format: physicochemical
Details: excipient powder
MEASURE: Angle of repose (°)

INSERT INTO measurements (compound, units_text, endpoint_result) VALUES
  ('OC[C@H]1O[C@H](O[C@H]2O[C@H](CO)[C@@H](O)[C@H](O)[C@H]2O)[C@H](O)[C@@H](O)[C@@H]1O [Trehalose K, trehalose]', '°', 42),
  ('OC[C@H]1O[C@H](O[C@H]2O[C@H](CO)[C@@H](O)[C@H](O)[C@H]2O)[C@H](O)[C@@H](O)[C@@H]1O [Trehalose H, trehalose]', '°', 37),
  ('OC[C@H]1O[C@@H](O[C@H]2[C@H](O)[C@@H](O)C(O)O[C@@H]2CO)[C@H](O)[C@@H](O)[C@H]1O (stereo partly shown) [100-Mesh lactose, lactose, reference compound]', '°', 43),
  ('OC[C@H]1O[C@@H](O[C@H]2[C@H](O)[C@@H](O)C(O)O[C@@H]2CO)[C@H](O)[C@@H](O)[C@H]1O (stereo partly shown) [200M lactose, lactose, reference compound]', '°', 45),
  ('OC[C@@H](O)[C@@H](O)[C@H](O)[C@H](O)CO [Mannit P, reference compound]', '°', 45),
  ('OC[C@H]1O[C@H](O[C@H]2O[C@H](CO)[C@@H](O)[C@H](O)[C@H]2O)[C@H](O)[C@@H](O)[C@@H]1O [Trehalose I, trehalose]', '°', 30),
  ('OC[C@H]1O[C@H](O[C@H]2O[C@H](CO)[C@@H](O)[C@H](O)[C@H]2O)[C@H](O)[C@@H](O)[C@@H]1O [Trehalose J, trehalose]', '°', 41);

* * *

Experiment: Water content (Karl Fisher) of tablets before and after storage
Format: physicochemical
Settings: tablets compressed at 500 kg/cm^2; 0 day; listed as C
MEASURE: Water content (%)
Write the value in % as a bare number.

The compound listed as OC[C@H]1O[C@H](O[C@H]2O[C@H](CO)[C@@H](O)[C@H](O)[C@H]2O)[C@H](O)[C@@H](O)[C@@H]1O shows Water content equal to 9.8

* * *

Test: Apparent specific volume
Type: physicochemical
Settings: excipient powder
MEASURE: Apparent specific volume (cm^3/g)

INSERT INTO assay_data (compound, endpoint_result) VALUES
  ('OC[C@H]1O[C@@H](O[C@H]2[C@H](O)[C@@H](O)C(O)O[C@@H]2CO)[C@H](O)[C@@H](O)[C@H]1O (stereo partly shown) [100-Mesh lactose, lactose, reference compound]', 1.5),
  ('OC[C@H]1O[C@@H](O[C@H]2[C@H](O)[C@@H](O)C(O)O[C@@H]2CO)[C@H](O)[C@@H](O)[C@H]1O (stereo partly shown) [200M lactose, lactose, reference compound]', 2.1),
  ('OC[C@H]1O[C@H](O[C@H]2O[C@H](CO)[C@@H](O)[C@H](O)[C@H]2O)[C@H](O)[C@@H](O)[C@@H]1O [Trehalose H, trehalose]', 1.5),
  ('OC[C@H]1O[C@H](O[C@H]2O[C@H](CO)[C@@H](O)[C@H](O)[C@H]2O)[C@H](O)[C@@H](O)[C@@H]1O [Trehalose K, trehalose]', 2.1);

[P] OC[C@@H](O)[C@@H](O)[C@H](O)[C@H](O)CO [Mannit P, reference compound]
[Q] OC[C@H]1O[C@H](O[C@H]2O[C@H](CO)[C@@H](O)[C@H](O)[C@H]2O)[C@H](O)[C@@H](O)[C@@H]1O [Trehalose I, trehalose]
query: Quick one: lower Apparent specific volume, P or Q ? Pick one; state its label.
result: Q

Where these numbers come from: patent US20020042393A1
